Target: 5-HT1d receptor (Homo sapiens, UniProt P28221)
Sequence (P28221 whole entry): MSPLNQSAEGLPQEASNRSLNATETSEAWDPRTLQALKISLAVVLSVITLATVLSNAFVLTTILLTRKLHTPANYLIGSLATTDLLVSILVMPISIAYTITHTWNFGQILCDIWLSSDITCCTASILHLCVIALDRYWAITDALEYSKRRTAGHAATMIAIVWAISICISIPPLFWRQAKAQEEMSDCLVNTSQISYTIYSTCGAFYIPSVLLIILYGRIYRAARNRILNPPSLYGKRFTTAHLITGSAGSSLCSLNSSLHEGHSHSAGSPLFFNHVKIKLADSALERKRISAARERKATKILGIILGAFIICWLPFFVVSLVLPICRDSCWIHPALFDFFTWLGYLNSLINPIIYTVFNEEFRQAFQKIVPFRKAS
Measured pKi by item
By convention, pKi is the negative base-10 log of a molar concentration.

C[C@H]1CN(c2ccc(C(F)(F)F)c3ccoc23)CCN1.O=C(O)/C=C/C(=O)O [Example 1, fumarate]
6.83

Next item in the queue.
(Q) Data request, read-out pKi, for CC[C@H]1CN(c2ccc(C(F)(F)F)c3ccoc23)CCN1.O=C(O)/C=C/C(=O)O [Example 2, fumarate]
(A) 6.14

----------
Molecular target: UniProt P50406
Sequence (P50406 whole entry): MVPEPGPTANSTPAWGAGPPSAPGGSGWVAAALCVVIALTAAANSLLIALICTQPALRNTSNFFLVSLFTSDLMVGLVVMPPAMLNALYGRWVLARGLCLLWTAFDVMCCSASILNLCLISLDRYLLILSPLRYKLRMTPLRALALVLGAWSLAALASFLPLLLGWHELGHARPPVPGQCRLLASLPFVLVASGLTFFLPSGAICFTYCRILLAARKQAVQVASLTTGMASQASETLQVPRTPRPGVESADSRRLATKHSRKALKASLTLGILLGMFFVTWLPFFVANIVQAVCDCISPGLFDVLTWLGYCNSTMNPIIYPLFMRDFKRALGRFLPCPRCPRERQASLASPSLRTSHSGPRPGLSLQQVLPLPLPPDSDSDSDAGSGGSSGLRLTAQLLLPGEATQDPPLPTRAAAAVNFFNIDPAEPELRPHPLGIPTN
Test: Serotonergic receptor binding selectivity, 5-HT6
Details: 5-HT RECEPTOR 6; read-out: Ki, 5-HT receptor 6
measured-endpoint: pKi
By convention, pKi is the negative base-10 log of a molar concentration.

(Q) Data request, read-out pKi, for CC[C@H]1CN(c2ccc(C(F)(F)F)c3ccoc23)CCN1.O=C(O)/C=C/C(=O)O [Example 2, fumarate]
(A) 6.22
